resultType: IC50

Request: Give UniProt P0A6V1 IC50 for O=P(O)(O)O[C@H]1O[C@H](CO)[C@@H](O)[C@H](O)[C@H]1O [Glc-1-P, glucose-1-phosphate]
Sequence (P0A6V1 whole entry): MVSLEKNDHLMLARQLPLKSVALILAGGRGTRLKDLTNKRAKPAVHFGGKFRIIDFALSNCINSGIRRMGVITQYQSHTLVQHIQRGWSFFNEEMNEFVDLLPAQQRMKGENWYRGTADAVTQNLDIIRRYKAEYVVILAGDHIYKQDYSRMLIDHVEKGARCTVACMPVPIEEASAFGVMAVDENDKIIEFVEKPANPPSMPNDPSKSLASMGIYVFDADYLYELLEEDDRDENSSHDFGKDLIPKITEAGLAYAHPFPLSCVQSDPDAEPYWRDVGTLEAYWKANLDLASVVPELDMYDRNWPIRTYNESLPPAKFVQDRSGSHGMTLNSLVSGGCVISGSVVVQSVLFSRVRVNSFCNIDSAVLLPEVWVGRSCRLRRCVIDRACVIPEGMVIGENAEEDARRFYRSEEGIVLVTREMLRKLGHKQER
Response: 1780 µM
